TARGET_UNDER_TEST: plasma dipeptidylpeptidase IV (Homo sapiens)
Construct: 20 μL of plasma diluted 8-fold with saline in a well of a 96-well flat bottom plate
Sequence (P27487 whole entry): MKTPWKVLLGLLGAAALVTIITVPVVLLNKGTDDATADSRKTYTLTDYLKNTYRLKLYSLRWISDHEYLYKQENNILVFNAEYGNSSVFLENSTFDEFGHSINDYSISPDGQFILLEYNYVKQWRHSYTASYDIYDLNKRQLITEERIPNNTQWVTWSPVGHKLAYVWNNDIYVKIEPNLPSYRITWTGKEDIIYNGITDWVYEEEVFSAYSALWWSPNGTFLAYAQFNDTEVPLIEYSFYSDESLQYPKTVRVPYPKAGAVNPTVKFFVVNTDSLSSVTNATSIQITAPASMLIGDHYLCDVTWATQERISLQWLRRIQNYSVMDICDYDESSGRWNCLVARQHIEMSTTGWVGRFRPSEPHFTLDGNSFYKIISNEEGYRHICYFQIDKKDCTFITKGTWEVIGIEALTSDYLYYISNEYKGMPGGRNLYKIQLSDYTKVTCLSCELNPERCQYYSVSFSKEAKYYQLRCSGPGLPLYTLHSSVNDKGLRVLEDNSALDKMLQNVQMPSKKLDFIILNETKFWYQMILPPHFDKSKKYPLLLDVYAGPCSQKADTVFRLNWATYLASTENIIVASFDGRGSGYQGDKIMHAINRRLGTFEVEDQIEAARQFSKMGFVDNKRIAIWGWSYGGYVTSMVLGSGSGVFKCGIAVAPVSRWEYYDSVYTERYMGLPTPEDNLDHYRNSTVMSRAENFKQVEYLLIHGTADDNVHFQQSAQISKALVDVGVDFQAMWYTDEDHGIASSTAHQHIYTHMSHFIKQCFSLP
TEST_NAME: In vitro dipeptidylpeptidase IV inhibitory activity (plasma, H-Gly-Pro-AMC fluorometry)
ASSAY_CONDITIONS: plasma diluted 8-fold, H-Gly-Pro-AMC.HBr substrate, room temperature 20 minutes
QUANTITY: IC50 (nM)

| COMPOUND_SMILES | TARGET_UNDER_TEST | IC50 / nM |
| --- | --- | --- |
| CCOC(=O)C12CCC(NCC(=O)N3C[C@@H](F)C[C@H]3C#N)(CC1)CC2 | plasma dipeptidylpeptidase IV (Homo sapiens) | 0.25 |

a: N#C[C@@H]1C[C@H](F)CN1C(=O)CNC12CCC(C(=O)OCc3ccc(C(F)(F)F)cc3)(CC1)CC2
b: CC(C)COC(=O)C12CCC(NCC(=O)N3C[C@@H](F)C[C@H]3C#N)(CC1)CC2
c: N#C[C@@H]1C[C@H](F)CN1C(=O)CNC12CCC(C(=O)OCC3CC3)(CC1)CC2
Exam item: Hi! Can you put these in order of IC50, lowest number first? Form entry: labels listed in requested order.
Marked response: b, a, c
(b: 0.13 nM, a: 0.23 nM, c: 0.48 nM)
